Entries annotated with measured inhibition at 1 µM
System: platelet aggregation
assay_method_text: Platelet aggregation-inhibitory activity in vitro (collagen-induced, rat platelet rich plasma)
Format: cell-based
condition: 10^-6 M, read-out: in vitro Inhibitory ratio
Experimental: Platelet aggregation-inhibitory activity in vitro Rat arterial blood was centrifuged to obtain platelet rich plasma. Platelet aggregation inhibitory ratio was calculated by the following formula: [formula] Tc: Aggregation degree where only a solvent was added. Ts: Aggregation degree where a solution of the test compound was added.
reported_endpoint: inhibition at 1 µM

>>> df
                                   compound  measurement
0  CC(C)C(Nc1nnc(-c2ccccc2)c2ccccc12)c1ccccc1 (racemic) [4 (DL)]        96.6%
1  CC(Cc1ccccc1)Nc1nnc(-c2ccccc2)c2ccccc12 (centres unmarked) [Control 4, reference compound]         7.1%
2  CC(C)(C)C(Nc1nnc(-c2ccccc2)c2ccccc12)c1ccccc1 (racemic) [8 (DL)]         100%
3  CCC(Nc1nnc(-c2ccccc2)c2ccccc12)c1ccccc1 (racemic) [2 (DL)]        96.4%
4  CC(Nc1nnc(-c2ccccc2)c2ccccc12)c1cccc(F)c1 (racemic) [86 (DL)]         100%
5  CC(Nc1nnc(-c2ccccc2)c2ccccc12)c1ccccc1Cl (racemic) [82 (DL)]        65.5%
6  CC(Nc1nnc(-c2ccccc2)c2ccccc12)c1ccccc1 (racemic) [1 (DL)]          84%
7  CC(Nc1nnc(-c2ccccc2)c2ccccc12)c1cccc(C(F)(F)F)c1 (racemic) [92 (DL)]        89.5%
